# System: FXR:RXRa (NR concentration 270 nM, RXRa partner concentration 90 nM)
# PROCEDURE DETAILS: PBM binding z-score (relative to random genomic background probes); higher = stronger binding; sequences stand for … in GC…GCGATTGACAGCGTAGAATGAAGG
VALUE KIND: PBM binding z-score

| POLYMER SEQUENCE | VALUE KIND | RESULT |
| --- | --- | --- |
| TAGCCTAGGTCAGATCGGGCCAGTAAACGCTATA | PBM binding z-score | 2.02 |
| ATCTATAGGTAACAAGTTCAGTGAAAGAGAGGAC | PBM binding z-score | 0.766 |
| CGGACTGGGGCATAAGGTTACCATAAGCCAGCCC | PBM binding z-score | 0.339 |
| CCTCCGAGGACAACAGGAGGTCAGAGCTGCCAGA | PBM binding z-score | 1.35 |
| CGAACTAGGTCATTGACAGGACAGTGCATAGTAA | PBM binding z-score | 4.46 |
| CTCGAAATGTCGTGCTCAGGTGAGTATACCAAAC | PBM binding z-score | 0.0674 |

* * *

# System: RXRa homodimer (NR concentration 180 nM)
# PROCEDURE DETAILS: PBM binding z-score (relative to random genomic background probes); higher = stronger binding; sequences stand for … in GC…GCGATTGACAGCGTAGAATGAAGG

| POLYMER SEQUENCE | PBM binding z-score |
| --- | --- |
| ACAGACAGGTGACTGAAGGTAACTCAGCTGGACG | 0.654 |
| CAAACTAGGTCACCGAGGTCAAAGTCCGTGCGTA | 7.09 |
| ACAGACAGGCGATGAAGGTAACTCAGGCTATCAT | -0.0483 |
| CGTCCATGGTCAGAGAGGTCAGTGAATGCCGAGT | 2.97 |

* * *

# Tested on: PPARg:RXRa (NR concentration 180 nM, RXRa partner concentration 90 nM)
# PROCEDURE DETAILS: PBM binding z-score (relative to random genomic background probes); higher = stronger binding; sequences stand for … in GC…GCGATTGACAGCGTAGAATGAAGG
Label scheme for PBM binding z-score: lower than 1 is Criterion not met, 1 and above is Criterion met.

| POLYMER SEQUENCE | TARGET UNDER TEST | ANSWER LABEL |
| --- | --- | --- |
| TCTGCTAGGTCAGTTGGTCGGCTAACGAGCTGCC | PPARg:RXRa (NR concentration 180 nM, RXRa partner concentration 90 nM) | Criterion not met |
| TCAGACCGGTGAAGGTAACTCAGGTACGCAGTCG | PPARg:RXRa (NR concentration 180 nM, RXRa partner concentration 90 nM) | Criterion not met |
| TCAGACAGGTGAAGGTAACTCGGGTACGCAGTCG | PPARg:RXRa (NR concentration 180 nM, RXRa partner concentration 90 nM) | Criterion not met |
| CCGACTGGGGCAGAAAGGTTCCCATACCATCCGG | PPARg:RXRa (NR concentration 180 nM, RXRa partner concentration 90 nM) | Criterion not met |
| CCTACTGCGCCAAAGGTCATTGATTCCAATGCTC | PPARg:RXRa (NR concentration 180 nM, RXRa partner concentration 90 nM) | Criterion met |
| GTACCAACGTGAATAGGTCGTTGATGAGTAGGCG | PPARg:RXRa (NR concentration 180 nM, RXRa partner concentration 90 nM) | Criterion not met |
| ATCTCTAGGTAAACGTTCAGTGAATCCCGAGGAT | PPARg:RXRa (NR concentration 180 nM, RXRa partner concentration 90 nM) | Criterion met |
| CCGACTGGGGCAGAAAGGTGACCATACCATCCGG | PPARg:RXRa (NR concentration 180 nM, RXRa partner concentration 90 nM) | Criterion met |
| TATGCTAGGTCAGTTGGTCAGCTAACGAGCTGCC | PPARg:RXRa (NR concentration 180 nM, RXRa partner concentration 90 nM) | Criterion met |
| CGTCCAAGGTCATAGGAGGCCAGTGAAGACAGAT | PPARg:RXRa (NR concentration 180 nM, RXRa partner concentration 90 nM) | Criterion met |
| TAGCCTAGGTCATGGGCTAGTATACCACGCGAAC | PPARg:RXRa (NR concentration 180 nM, RXRa partner concentration 90 nM) | Criterion met |
| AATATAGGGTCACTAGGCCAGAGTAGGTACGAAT | PPARg:RXRa (NR concentration 180 nM, RXRa partner concentration 90 nM) | Criterion met |
| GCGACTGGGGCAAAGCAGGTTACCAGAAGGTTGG | PPARg:RXRa (NR concentration 180 nM, RXRa partner concentration 90 nM) | Criterion met |
| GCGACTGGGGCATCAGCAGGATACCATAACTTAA | PPARg:RXRa (NR concentration 180 nM, RXRa partner concentration 90 nM) | Criterion not met |
| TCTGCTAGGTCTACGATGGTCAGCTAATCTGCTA | PPARg:RXRa (NR concentration 180 nM, RXRa partner concentration 90 nM) | Criterion not met |
| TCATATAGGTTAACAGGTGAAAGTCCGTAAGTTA | PPARg:RXRa (NR concentration 180 nM, RXRa partner concentration 90 nM) | Criterion met |
| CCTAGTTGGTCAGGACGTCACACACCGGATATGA | PPARg:RXRa (NR concentration 180 nM, RXRa partner concentration 90 nM) | Criterion not met |
| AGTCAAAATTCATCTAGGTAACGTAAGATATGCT | PPARg:RXRa (NR concentration 180 nM, RXRa partner concentration 90 nM) | Criterion met |
